- Experimental Protocol: Inhibition of apomorphine-induced hyperactivity in mice after peroral administration
- Format: functional
- Study Conditions: Mus musculus, po
Quantity Kind: ED50

Qu. Quick one: ED50 of CC1CN(Cc2ccc(F)cc2)CCN1CCCC(O)c1ccc(F)cc1 (stereo unspecified) ?
Ans. > 200 mg/kg

Qu. Also need CC1CN(C(=O)c2ccc(F)cc2)CCN1CCCC(O)c1ccc(F)cc1 (stereo unspecified) , thanks.
Ans. > 200 mg/kg

Qu. Also need CC1CN(Cc2ccccc2)CCN1CCCC(O)c1ccc(F)cc1 (stereo unspecified) , thanks.
Ans. > 200 mg/kg

Qu. Also need CC1CN(Cc2ccc(F)cc2)CCN1CCCC(=O)c1ccc(F)cc1 (stereo unspecified) , thanks.
Ans. > 200 mg/kg

Qu. Also need O=C(c1ccc(F)cc1)C1CCN(CCCOc2ccc(F)cc2)CC1 , thanks.
Ans. 4.9 mg/kg

Others:
Qu. Quick one: ED50 of CC1CN(C(=O)c2ccc(F)cc2)CCN1CCCC(=O)c1ccc(F)cc1 (stereo unspecified) ?
Ans. > 200 mg/kg

====

- System: Mus musculus
- Experimental Protocol: Inhibition of apomorphine-induced Hyperactivity in mice, after Intraperitoneal administration
- Format: functional
- Study Conditions: ip
Rule: measured ED50 below 30 mg/kg gets 1; anything equal to or greater than 30 mg/kg gets -1.

Before answering, review these 5 worked examples.
Qu. Strictly below 30 mg/kg in ED50? O=C(c1ccc(F)cc1)C1CCN(CCCOc2ccc(F)cc2)CC1
Ans. 1

Qu. Also need O=C(CCCN1CCC(Cc2ccccc2)CC1)c1ccc(F)cc1 , thanks.
Ans. 1

Qu. Also need CC1CN(C(=O)c2ccc(F)cc2)CCN1CCCC(=O)c1ccc(F)cc1 (stereo not drawn) , thanks.
Ans. -1

Qu. Also need CC1CN(Cc2ccc(F)cc2)CCN1CCCC(O)c1ccc(F)cc1 (stereo not drawn) , thanks.
Ans. -1

Qu. Also need CC1CN(Cc2ccccc2)CCN1CCCC(O)c1ccc(F)cc1 (stereo not drawn) , thanks.
Ans. -1

Others:
Qu. Strictly below 30 mg/kg in ED50? CC1CN(Cc2ccc(F)cc2)CCN1CCCC(=O)c1ccc(F)cc1 (stereo not drawn)
Ans. -1

Qu. Also need CC1CN(C(=O)c2ccc(F)cc2)CCN1CCCC(O)c1ccc(F)cc1 (stereo not drawn) , thanks.
Ans. -1

====

- Experimental Protocol: Inhibition of apomorphine-induced climbing behavior in mice, after intraperitoneal administration
- Type: functional
- Study Conditions: Mus musculus, ip
Entries and their measured ED50 follow.
Record the value in mg/kg, omitting the unit from your answer.

Qu. Quick one: ED50 of O=C(CCCN1CCC(Cc2ccccc2)CC1)c1ccc(F)cc1 ?
Ans. 2.85

Qu. Also need CC1CN(Cc2ccc(F)cc2)CCN1CCCC(O)c1ccc(F)cc1 (stereo not drawn) , thanks.
Ans. 30

Qu. Also need CC1CN(Cc2ccccc2)CCN1CCCC(=O)c1ccc(F)cc1 (stereo not drawn) , thanks.
Ans. 28.2

Qu. Also need CCN1CCC[C@H]1CNC(=O)c1c(OC)ccc(Br)c1OC [REMOXIPRIDE] , thanks.
Ans. 5.2

Values were extracted from ChEMBL document CHEMBL1129248.
